Values from paper PMC5349917

# EXPERIMENT_SUMMARY: Tissue distribution in H22 cell tumor bearing mice
# Format: in vivo, mouse
# PROTOCOL_CONDITIONS: male, Kunming, mouse, heart / blood, iv; 15 min post injection, i.v. 4 mg/kg; read-out: ratio of the PPM concentration in heart and blood
ENDPOINT_NAME: Kp at 15 min
Write no unit; give the number alone.

Task: Recorded Kp at 15 min for CO[C@H]1C[C@H](O[C@H]2CC[C@]3(C)[C@H]4CC[C@]5(C)[C@@H](C6=CC(=O)OC6)CC[C@]5(O)[C@@H]4CC[C@]3(O)C2)O[C@H](C)[C@H]1O , please?
Result: 1.18
